Reference for the values: paper PMC11201819

SUBJECT OF TEST: CLsoDHDPS (dihydrodipicolinate synthase) (Candidatus Liberibacter solanacearum)
Sequence (A0A0F4VK59 1-296): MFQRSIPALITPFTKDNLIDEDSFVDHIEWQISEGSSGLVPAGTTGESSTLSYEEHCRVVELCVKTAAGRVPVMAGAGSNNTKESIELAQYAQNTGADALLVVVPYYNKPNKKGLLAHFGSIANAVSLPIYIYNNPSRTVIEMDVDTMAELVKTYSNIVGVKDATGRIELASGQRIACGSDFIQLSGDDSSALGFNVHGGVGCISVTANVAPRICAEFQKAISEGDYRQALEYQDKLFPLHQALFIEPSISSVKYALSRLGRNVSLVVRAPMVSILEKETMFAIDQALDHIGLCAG
OUTCOME MEASURE: pKd
The value called pKd is obtained by taking minus log10 of the concentration in mol/L.

The compound CC(=O)C(=O)O [pyruvate] on CLsoDHDPS (dihydrodipicolinate synthase) (Candidatus Liberibacter solanacearum): pKd was 5.70
